System: OVCAR-4 ovarian
Test: NCI tumour cell line growth inhibition, 48 h
readout.kind: TGI

// field: TGI; key: Cc1ccc(S(=O)(=O)N/N=C2/C3CC4CCC2C4C3)cc1 (stereo not given) ; value = > 100 µM

// field: TGI; key: "O=C1CN2CCN(CC2)CC(=O)Nc2ccc(cc2)S(=O)(=O)c2ccc(cc2)NC(=O)CN2CCN(CC2)CC(=O)Nc2ccc(cc2)S(=O)(=O)c2ccc(cc2)N1" ; value = > 100 µM

// field: TGI; key: "CCn1cc(C(=O)O)c(=O)c2cc(F)c(N3CCNCC3)nc21" ; value = > 100 µM

// field: TGI; key: "COc1ccc(-c2nn(C(=O)c3cc(OC)c(OC)c(OC)c3)c3cc(N)ccc23)cc1" ; value = 12.9 µM

// field: TGI; key: "O=[N+]([O-])c1ccc(N/N=C\c2ccc(O)cc2O)nc1" ; value = > 100 µM

// field: TGI; key: "C/C(=N\Nc1nc2ccccc2[nH]1)c1ccc2ccccc2n1" ; value = 10.8 µM

// field: TGI; key: "CCOc1ccc(-n2cc(-c3ccc(N(C)C)cc3)[n+]3c2CCCCC3)cc1" ; value = > 100 µM

// field: TGI; key: "CCCCCCCCCCCC(=O)[O][Sn]([CH2]CCC)([CH2]CCC)[CH2]CCC" ; value = 0.153 µM

// field: TGI; key: COc1ccc2nc3c(cc2c1)C(=O)CC(C(F)(F)F)C3 (stereo not given) ; value = > 100 µM

// field: TGI; key: "O=C1CCC(=O)C12CCc1ccccc12" ; value = > 100 µM

// field: TGI; key: CC(=O)Oc1cc(OC(C)=O)c(OC(C)=O)c2c1CC1C(=O)C3(CCc4ccccc43)C(=O)C1C2 (stereo not given) ; value = 24.1 µM

// field: TGI; key: "c1ccc(Oc2cnc3ccccc3n2)cc1" ; value = > 100 µM

// field: TGI; key: OC1OC2COC(c3ccccc3)OC2C(O)C1O (stereo not given) ; value = > 100 µM

// field: TGI; key: "CCOc1ccnc2c(OC)c(C)c3nc4ccccc4nc3c12" ; value = > 100 µM

// field: TGI; key: FC1(F)SC2CCCCCCCCCCC2C1(F)F (stereo not given) ; value = > 100 µM

###

Test system: A549 NSCLC
Assay: NCI tumour cell line growth inhibition, 48 h
Give measured TGI for each item. Keep answers brief.

// field: TGI; key: "COc1ccc([C@H]2C=C(c3cc(F)c(Cl)cc3Cl)N=c3s/c(=C\c4ccc(-c5ccc(Cl)cc5Cl)o4)c(=O)n32)cc1" ; value = > 100 µM

// field: TGI; key: "c1ccc2c(CCNC3=NCCO3)cccc2c1" ; value = > 10 µM

// field: TGI; key: "CC/C(=C(/c1ccc(Cl)cc1)c1ccc(OCCCN(C)C)cc1)c1ccc(OC)cc1" ; value = 10.7 µM

// field: TGI; key: "CN=C(NC#N)NCc1ccccc1" ; value = > 100 µM

// field: TGI; key: Cc1ccc(S(=O)(=O)N/N=C2/C3CC4CCC2C4C3)cc1 (centres undefined) ; value = > 100 µM

// field: TGI; key: "COc1ccc(/C=C/C(=O)N[C@@H]2C(=O)N3[C@@H]2SC(C)(C)[C@@H]3C(=O)O)cc1OC" ; value = > 100 µM

// field: TGI; key: "CCOc1ccnc2c(OC)c(C)c3nc4ccccc4nc3c12" ; value = > 100 µM

// field: TGI; key: "Nc1nc(N)c(N=Nc2ccc([As](=O)(O)O)c(O)c2)c(N)n1" ; value = > 100 µM

// field: TGI; key: CC(=O)Oc1cc(OC(C)=O)c(OC(C)=O)c2c1CC1C(=O)C3(CCc4ccccc43)C(=O)C1C2 (centres undefined) ; value = 44.6 µM
